study.target: UniProt P56817
Sequence (P56817 46-501): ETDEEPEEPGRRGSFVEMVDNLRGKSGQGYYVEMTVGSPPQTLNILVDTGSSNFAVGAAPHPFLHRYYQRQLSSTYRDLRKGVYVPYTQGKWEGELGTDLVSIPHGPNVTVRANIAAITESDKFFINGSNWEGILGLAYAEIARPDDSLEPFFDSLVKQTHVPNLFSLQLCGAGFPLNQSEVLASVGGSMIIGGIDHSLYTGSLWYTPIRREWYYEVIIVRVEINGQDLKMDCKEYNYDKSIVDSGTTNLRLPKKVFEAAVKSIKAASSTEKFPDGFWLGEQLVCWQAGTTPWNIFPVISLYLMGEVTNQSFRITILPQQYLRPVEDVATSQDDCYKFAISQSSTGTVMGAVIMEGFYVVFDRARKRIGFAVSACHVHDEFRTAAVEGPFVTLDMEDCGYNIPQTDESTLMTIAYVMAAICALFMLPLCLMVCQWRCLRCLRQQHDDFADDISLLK
method: In vitro enzymatic BACE FRET (fluorescence resonance energy transfer) assay;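 note: fluorescence read after 1 h with 50 nM quenched peptide substrate spanning the BACE cleavage site, in pH 4.2 acetate buffer containing 10% DMSO and nonionic detergent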
Type: biochemical
experimental.conditions: Table 2; read-out: BACE1 FRET assay
metric: log10(IC50) (log10 of the value in nM)
Log scale reminder: IC50 in nM, then log10 taken.

# log10(IC50) (molecule: CO[C@H](C)C(=O)N[C@@H](Cc1ccc(F)cc1)[C@H](O)CN[C@H]1CC2(CCC2)Oc2c1cc(CC(C)C)cc2-n1ccnc1 [compound 482] ) is 2.18

# log10(IC50) (molecule: CO[C@@H](C)C(=O)N[C@@H](Cc1ccc2c(c1)OCO2)[C@H](O)CN[C@H]1CC2(CCC2)Cc2sc(CC(C)(C)C)cc21 [compound 456] ) is 2.56

# log10(IC50) (molecule: COCC(=O)N[C@@H](Cc1cc(F)cc(F)c1)[C@H](O)CN[C@H]1CC2(CCC2)Oc2c(-c3nccs3)cc(CC(C)(C)C)cc21 [compound 463] ) is 0.48

# log10(IC50) (molecule: COCC(=O)N[C@@H](Cc1ccc(F)cc1)[C@H](O)CN[C@@H]1CC2(CCC2)Oc2c1cc(CC(C)(C)C)nc2-n1ccnc1 [compound 449] ) is 3.46

# log10(IC50) (molecule: CC(C)(C)Cc1cnc2c(c1)[C@@H](NC[C@@H](O)[C@H](Cc1ccc(F)cc1)NC(=O)C(C)(F)F)CC1(CCC1)O2 [compound 477] ) is 1.08

# log10(IC50) (molecule: CO[C@H](C)C(=O)N[C@@H](Cc1cccc(C#N)c1)[C@H](O)CN[C@H]1CC2(CC(F)(F)C2)Oc2ncc(CC(C)(C)C)cc21 [compound 471] ) is 0.60

# log10(IC50) (molecule: COCC(=O)N[C@@H](Cc1cc(F)cc(F)c1)[C@H](O)CN[C@H]1CC2(CCC2)Oc2c(-c3nccs3)cc(CC(C)C)cc21 [compound 460] ) is 0.00

# log10(IC50) (molecule: CC(F)C(=O)N[C@@H](Cc1ccc2c(c1)OCO2)[C@H](O)CN[C@H]1CC2(CCC2)Oc2ncc(CC(C)(C)C)cc21 (stereo partly drawn) [compound 452] ) is 1.20

# log10(IC50) (molecule: CC(C)(C)Cc1cnc2c(c1)[C@@H](NC[C@@H](O)[C@H](Cc1cccc(C#N)c1)NC(=O)[C@H]1CCCO1)CC1(CC(F)(F)C1)O2 [compound 472] ) is 0.70

# log10(IC50) (molecule: CC(=O)N[C@@H](Cc1cc(F)cc(F)c1)[C@H](O)CN[C@H]1CC2(CCC2)Oc2c1cc(CC(C)(C)C)nc2-n1ccnc1 [compound 465] ) is 1.28

# log10(IC50) (molecule: CNc1cc(CC(C)(C)C)cc2c1OC1(CCC1)C[C@@H]2NC[C@@H](O)[C@H](Cc1cc(F)cc(F)c1)NC(=O)COC [compound 479] ) is 1.04

# log10(IC50) (molecule: COCC(=O)N[C@@H](Cc1ccc(F)cc1)[C@H](O)CN[C@H]1CC2(CCC2)Oc2c1cc(CC(C)C)cc2-n1ccnc1 [Example 478] ) is 1.75

====

study.target: CYP2D6 (Homo sapiens)
Sequence (P10635 whole entry): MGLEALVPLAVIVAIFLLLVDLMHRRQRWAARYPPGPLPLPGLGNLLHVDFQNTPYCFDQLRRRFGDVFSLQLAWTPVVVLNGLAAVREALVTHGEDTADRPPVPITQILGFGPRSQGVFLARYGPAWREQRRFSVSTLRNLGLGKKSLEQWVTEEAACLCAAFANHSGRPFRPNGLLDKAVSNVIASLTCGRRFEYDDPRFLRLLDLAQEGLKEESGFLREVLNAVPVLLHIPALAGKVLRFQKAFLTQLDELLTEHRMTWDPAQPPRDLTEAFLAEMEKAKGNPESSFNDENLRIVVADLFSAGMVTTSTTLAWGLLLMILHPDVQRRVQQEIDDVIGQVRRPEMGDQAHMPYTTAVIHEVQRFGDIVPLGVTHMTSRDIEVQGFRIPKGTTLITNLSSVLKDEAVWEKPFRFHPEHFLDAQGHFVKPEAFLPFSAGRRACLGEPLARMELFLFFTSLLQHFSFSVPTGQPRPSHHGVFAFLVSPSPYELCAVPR
method: CYP2D6 inhibition assay (bufuralol, pooled human liver microsomes)
experimental.conditions: 2D6 IC50 (uM), CYP enzyme inhibition
Threshold-based label: IC50 under 2 µM gives Met, IC50 not under 2 µM gives Not met.

Exercise: Does this compound meet the criterion IC50 < 2 µM? CO[C@H](C)C(=O)N[C@@H](Cc1cc(F)cc(-c2nccs2)c1)[C@H](O)CN[C@H]1CC2(CCC2)Oc2ccc(CC(C)C)cc21 [compound 770]
Solution: Met

Exercise: Does this compound meet the criterion IC50 < 2 µM? CC(C)(C)Cc1cnc2c(c1)[C@@H](NC[C@@H](O)[C@H](Cc1ccc(F)cc1)NC=O)CC1(CCC1)O2 [compound 540]
Solution: Not met

Exercise: Does this compound meet the criterion IC50 < 2 µM? CO[C@H](C)C(=O)N[C@@H](Cc1cccc(F)c1)[C@H](O)CN[C@H]1CC2(CCC2)Oc2c1cc(CC(C)(C)C)cc2-n1ccnc1 [compound 522]
Solution: Not met

Exercise: Does this compound meet the criterion IC50 < 2 µM? COCC(=O)N[C@@H](Cc1cccc(F)c1)[C@H](O)CN[C@H]1CC2(CCC2)Oc2c(-c3cscn3)cc(CC(C)C)cc21 [compound 526]
Solution: Not met

Exercise: Does this compound meet the criterion IC50 < 2 µM? COCC(=O)N[C@@H](Cc1cc(F)cc(F)c1)[C@H](O)CN[C@H]1CC2(CCC2)Oc2c(-c3cncs3)cc(CC(C)C)cc21 [compound 490]
Solution: Not met
